- target or system: system Xc^− (Homo sapiens, UniProt Q9UPY5)
- Sequence (Q9UPY5 whole entry): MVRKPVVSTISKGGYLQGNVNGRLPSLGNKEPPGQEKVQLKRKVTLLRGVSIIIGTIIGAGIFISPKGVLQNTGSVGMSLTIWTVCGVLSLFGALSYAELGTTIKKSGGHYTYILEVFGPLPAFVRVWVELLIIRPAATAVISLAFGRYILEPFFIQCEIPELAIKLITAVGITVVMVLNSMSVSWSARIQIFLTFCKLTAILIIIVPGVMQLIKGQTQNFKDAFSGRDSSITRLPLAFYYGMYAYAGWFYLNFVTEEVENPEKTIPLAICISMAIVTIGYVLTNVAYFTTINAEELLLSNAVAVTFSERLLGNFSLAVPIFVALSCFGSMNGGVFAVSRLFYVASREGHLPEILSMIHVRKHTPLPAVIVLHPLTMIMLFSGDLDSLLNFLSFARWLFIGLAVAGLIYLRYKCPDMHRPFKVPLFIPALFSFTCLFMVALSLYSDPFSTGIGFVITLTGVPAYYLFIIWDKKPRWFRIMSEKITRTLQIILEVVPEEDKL
- Sequence (P08195 102-630 partner): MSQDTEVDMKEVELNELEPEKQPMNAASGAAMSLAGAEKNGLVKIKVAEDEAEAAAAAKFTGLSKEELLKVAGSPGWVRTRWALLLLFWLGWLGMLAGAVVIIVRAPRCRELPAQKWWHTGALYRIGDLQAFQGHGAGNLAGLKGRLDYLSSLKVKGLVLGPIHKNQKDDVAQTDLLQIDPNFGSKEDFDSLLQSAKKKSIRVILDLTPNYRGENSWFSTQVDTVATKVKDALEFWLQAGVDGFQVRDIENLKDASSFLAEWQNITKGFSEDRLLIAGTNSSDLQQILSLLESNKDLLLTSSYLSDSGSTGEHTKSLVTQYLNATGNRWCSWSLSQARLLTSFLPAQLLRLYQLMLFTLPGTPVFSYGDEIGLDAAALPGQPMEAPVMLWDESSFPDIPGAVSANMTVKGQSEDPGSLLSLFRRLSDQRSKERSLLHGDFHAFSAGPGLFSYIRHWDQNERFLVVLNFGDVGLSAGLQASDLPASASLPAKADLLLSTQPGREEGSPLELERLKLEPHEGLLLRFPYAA
- test description: [^14C]L-Cystine uptake assay
- Assay type: cell-based
- Set-up: endogenous in cells; host or cells: H4 cells
- condition notes: H4 cells, sodium-free HEPES buffer, 0.5 μM L-[14C]Cystine and 4.5 μM L-Cystine, 1 hour at 37° C.; read-out: pIC50 [^14C] L-Cystine uptake assay (converted)
Please respond with reported IC50 for every item in the list.

Query: Please give the measured IC50 for this compound: Cc1cc2c(cn1)-c1ccccc1CC(=O)N2CC(=O)Nc1ccc(C(F)(F)F)cc1
Result: < 15.8 nM

Query: Consider next the compound Cc1cc2c(c(F)n1)-c1cc(F)cnc1C(C)C(=O)N2CC(=O)Nc1ccc(C(C)(F)F)cc1 (single isomer, unassigned) in the same way.
Result: < 15.8 nM

Query: Moving on to COc1nc(C)cc2c1-c1ccccc1CC(=O)N2CC(=O)Nc1ccc(C(F)(F)F)cc1
Result: 15.8 to 39.8 nM

Go through the items and report each one's IC50.
1. COc1nc2c(cc1CO)N(CC(=O)Nc1ccc(Cl)c(F)c1)C(=O)C(C)c1ccccc1-2 (stereo not drawn)
2. CC1C(=O)N(CC(=O)Nc2ccc(C(F)F)cc2)c2cc(N3CC(F)(F)C3)ccc2-c2cccnc21 (single isomer, unassigned)
3. Cc1cc2c(c(F)n1)-c1cccnc1C(CO)C(=O)N2CC(=O)Nc1ccc(C(F)(F)F)cc1 (stereo not drawn)
4. COc1cc2c(c(C)n1)-c1cccnc1C(C)C(=O)N2CC(=O)Nc1ccc(C(F)F)cc1 (single isomer, unassigned)

Result:
["15.8 to 39.8 nM", "< 15.8 nM", "15.8 to 39.8 nM", "< 15.8 nM"]

Here are 4 compounds. What values of IC50 were reported for them?
1. Cc1cc2c(c(Cl)n1)-c1cccnc1C(C)C(=O)N2CC(=O)Nc1ccc(C#N)cc1 (stereo not drawn)
2. Cc1cc2c(cn1)-c1ccc(F)cc1C(C)C(=O)N2CC(=O)Nc1ccc(Cl)c(F)c1 (single isomer, unassigned)
3. CC1C(=O)N(CC(=O)Nc2ccc(C(F)F)cc2)c2cc(C3CC3C(F)(F)F)cc(F)c2-c2cccnc21 (stereo not drawn)
4. Cc1cc2c(cn1)-c1ccnn1CC(=O)N2CC(=O)Nc1ccc(C(F)(F)F)cc1

Result:
39.8 to 100 nM
< 15.8 nM
39.8 to 100 nM
100 to 501 nM

Here are 3 compounds. What values of IC50 were reported for them?
1. Cc1cc2c(c(Cl)n1)-c1cccnc1C(C)C(=O)N2CC(=O)Nc1ccc(C(F)(F)F)cc1 (stereo not drawn)
2. Cc1cc2c(c(=O)n1C)-c1cccnc1[C@@H](C)C(=O)N2CC(=O)Nc1ccc(C(F)(F)F)cc1 (single isomer, unassigned)
3. Cc1cc2c(c(N)n1)-c1cccnc1CC(=O)N2CC(=O)Nc1ccc(C(F)(F)F)cc1

Result:
< 15.8 nM
< 15.8 nM
100 to 501 nM

Query: IC50 lookup needed for Cc1cc2c(cn1)-c1cc(Cl)ccc1CC(=O)N2CC(=O)Nc1ccc(C(F)(F)F)cc1 , thanks.
Result: < 15.8 nM

Taken from patent US20260217708A1.
